system: T1, human GIPR (glucose-dependent insulinotropic polypeptide receptor) (human, UniProt P48546 22-466)
T1 sequence (looked up): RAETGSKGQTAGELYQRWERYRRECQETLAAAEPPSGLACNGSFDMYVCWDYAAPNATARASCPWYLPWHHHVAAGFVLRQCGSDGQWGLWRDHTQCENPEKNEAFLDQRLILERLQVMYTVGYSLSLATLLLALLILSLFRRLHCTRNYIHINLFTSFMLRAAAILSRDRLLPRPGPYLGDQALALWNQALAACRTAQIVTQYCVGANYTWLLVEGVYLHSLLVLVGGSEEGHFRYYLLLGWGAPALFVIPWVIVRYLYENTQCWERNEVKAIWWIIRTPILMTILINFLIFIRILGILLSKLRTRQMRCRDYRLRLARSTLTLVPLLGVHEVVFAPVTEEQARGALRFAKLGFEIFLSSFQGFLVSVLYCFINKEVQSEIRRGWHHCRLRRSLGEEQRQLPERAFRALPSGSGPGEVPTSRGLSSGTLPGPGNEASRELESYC
assay-procedure: cell-based or functional assay
*1 amine or outer side, *2 acyl side, *3 side chain or, on linkers, in order; H or OH if unused. Where no end group is shown, it is not given here. Side-chain parts run from the residue outwards. [ ]: non-standard residue; d: D form. The star is where a group is joined. C18 diacid = O=C(O)CCCCCCCCCCCCCCCCC(=O)*; γGlu = O=C(O)[C@H](CCC(=O)[*:2])N[*:1]; Decanoyl = CCCCCCCCCC(=O)*; AEEA = NCCOCCOCC(=O)O; Aib = CC(C)(N)C(=O)O
Exercise: state measured Efficacy GIPR for each of the binders provided.

Input line: // query Efficacy GIPR value for entry H[Aib]DGTFISDYSIILDNLAARDFINWLIQTKITK(Decanoyl)-NH2 [Compound 10]
Output line: 127

Input line: // query Efficacy GIPR value for entry HXDGTFISDYSTILDNLAARDFIEWLIQTKITK (Aib at position 2; K33 acylated with C10, K(C10); C-terminal amide (-NH2)) [Compound 9]
Output line: 104

Input line: // query Efficacy GIPR value for entry HADGTFTSDYSTILDKLAARDFINWLIQTKGKKNDWK([AEEA-AEEA-γGlu-C18 diacid])HNITQ-OH [Compound 25]
Output line: 107

Input line: // query Efficacy GIPR value for entry H[Aib]DGTFISDYSTILDALAARDFINWLIQTKITK([AEEA-AEEA-γGlu-C18 diacid])-OH [Compound 28]
Output line: 119

Input line: // query Efficacy GIPR value for entry HADGTFTSDYSTILDKK([AEEA-AEEA-γGlu-C18 diacid])AARDFINWLIQTKGKKNDWKHNITQ-OH [Compound 23]
Output line: 82

Input line: // query Efficacy GIPR value for entry HADGTFTSDYSTILDK([AEEA-AEEA-γGlu-C18 diacid])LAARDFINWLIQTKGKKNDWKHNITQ-OH [Compound 21]
Output line: 104

Input line: // query Efficacy GIPR value for entry HXDGTFISDYSTXLDNLAARDFINWLIQTKITK (Aib at positions 2 and 13; K33 acylated with C10, K(C10); C-terminal amide (-NH2)) [Compound 12]
Output line: 107
